- Tested on: HL-60(TB) leukemia
- procedure.details: NCI-60 one-dose screen, 48 h
- condition.details: 10 µM unless noted
The panel holds about 83,000 compounds, 20% with a hit somewhere; the sample as a whole holds those more often. Activity calls are given as the source filed them. How the source made its calls: active means growth percent below 10; inactive means the rest.
Outcomes: T = active, F = inactive

> print(dat)
                                   compound  class
1  COc1cc2ccccc2cc1C(=O)NC(=S)Nc1ccc(-c2nc3ccccc3[nH]2)cc1      F
2  CNC(=O)NCC1OC(n2cnc3c(NC(=O)Nc4ccccc4)ncnc32)C(O[Si](C)(C)C(C)(C)C)C1O[Si](C)(C)C(C)(C)C (centres undefined)      F
3  Nc1ccc(-c2nn3c(CCC(=O)c4nc5ncccc5[nH]4)nnc3s2)c(O)c1      F
4  COc1ccc(-c2nnc(COc3ccc(NC(=O)Nc4ccc(Cl)c(C(F)(F)F)c4)cc3F)o2)cc1      T

###

- System: HL-60(TB) leukemia
- procedure.details: NCI-60 one-dose screen, 48 h
- condition.details: 10 µM unless noted
The panel holds about 83,000 compounds, 20% with a hit somewhere; the sample as a whole holds those more often. The source made the active and inactive calls. The calls were made as follows: active = growth percent below 10; inactive = the rest.
Outcomes: Yes (active), No (inactive)

compound	class
Cc1ccc(Nc2cc(N)nc(N)n2)cc1Cl	No
CC(=Nc1ccccc1)C1=C(O)C(Cc2ccc(O)cc2)NC1=O (stereo not given)	Yes
COc1ccc(/C(C)=N/NC(=O)c2ccc(S(C)(=O)=O)cc2)cc1OC	No
NN1C(=O)CSC1=S	No
CC(=O)NC1C(O[C@H]2C[C@H]3[C@@H]4CC=C5C[C@@H](O)CC[C@]5(C)[C@H]4CC[C@]3(C)[C@H]2[C@H](C)C(=O)CCC(C)C)OCC(O)C1O (stereo not given in full)	No
O=C(Nc1ccc(S(=O)(=O)NC2CCCCCC2)cc1)C(c1ccccc1)S(=O)(=O)c1ccc(F)cc1 (stereo not given)	Yes
O=C(Nc1ccc(I)cc1F)c1cc(Br)ccc1O	Yes
N#Cc1c(C(F)(F)F)cc(Nc2ccc3nc(NCCN4CCCC4)oc3c2)n2c1nc1ccccc12	No
COc1ccc(N2CCC(=O)NC2=S)cc1	No
CCCCCCOc1ccc(C2(Cl)c3ccccc3N(C)c3ccccc32)cc1	No
O=C(CNS(=O)(=O)Cc1ccccc1)NNc1ccccc1	No
CCCCn1c(C)nc2ccc(Nc3nc(N4CCN(C)CC4)nc4nc[nH]c34)cc21	No
CN1C(=O)CNC(=O)[C@H](NC(=O)c2nc3ccccc3cc2O)CSSC[C@H]1C(=O)NCCCc1nc2ccccc2cc1O	Yes
O=C(O)c1ccc(-n2cc(CNc3ccc(Cl)cc3)c(-c3ccccc3)n2)cc1	No
CN1CCN(CCOc2cc(OC3CCOCC3)c3c(Nc4c(Cl)ccc5c4OCO5)ncnc3c2)CC1	No
CC(c1ccccn1)C(C)(O)C(C)c1ccccn1 (stereo not given)	No
O=C1NN(C(=O)c2ccccc2)C(c2ccc(Cl)c(Cl)c2)=C/C1=C\c1ccccc1[N+](=O)[O-]	No
CCOC(=O)c1sc2ncnc(Nc3ccc4c(cnn4C(=O)Nc4ccc(C)c(Cl)c4)c3)c2c1C	No
COc1ccc(C2C=C(c3ccc(Cl)cc3)N=C3SC=CN32)cc1 (stereo not given)	No
N#Cc1c2c(nn(-c3ccccc3)c1=O)C(O)=C([N+](=O)[O-])C(c1ccccc1)C2 (stereo not given)	No

###

- Tested on: HL-60(TB) leukemia
- procedure.details: NCI-60 one-dose screen, 48 h
- condition.details: 10 µM unless noted
- Method: Growth inhibition of the HL-60(TB) human tumor cell line is measured as a screen for anti-cancer activity. Cells are grown in 96 well plates and exposed to the test compound for 48 hours. Compounds are tested at a single concentration, which is 10^-5 M for most compounds. The reported endpoint is percent growth (GI% or GIPRCNT), where numbers from 0 - 100% represent growth inhibition, and numbers from -100% - 0 represent cell death. For example, a value of 40 represents 60% growth inhibition. […]
About 83,000 compounds went through this panel and 20% of them were active in at least one assay; those are over-represented in the sample as a whole. Activity calls are given as the source filed them. How the source made its calls: active means growth percent below 10; inactive means the rest.
Outcomes: yes for active, no for inactive

> print(dat)
                            compound.string   system.under.test  class
1        COC(=O)c1cc(=O)nc(N/N=C/c2ccco2)s1  HL-60(TB) leukemia     no
2  Nc1c(C(=O)Nc2ccc(Cl)cc2)cc(-c2nc3ccccc3s2)c(=O)n1NS(=O)(=O)c1ccc(Cl)cc1  HL-60(TB) leukemia     no
3  CCCCCn1ncc(-c2c(O)c(O)cc3c(O)c(-c4c(C)cc5c(-c6cnn(CCCCC)n6)c(O)c(O)cc5c4O)c(C)cc23)n1  HL-60(TB) leukemia    yes
4  COc1ccc(-c2nc(N/N=C/c3c[nH]c4ccccc34)nc(N3CCOCC3)c2C#N)cc1  HL-60(TB) leukemia     no
5  CCN(CC)c1ccc2c(cc1=O)[C@@H](NC(C)=O)CCc1cc(OC)c(OC)c(OC)c1-2  HL-60(TB) leukemia    yes

###

- Tested on: HL-60(TB) leukemia
- procedure.details: NCI-60 one-dose screen, 48 h (100 = growth as untreated, 0 = no growth, -100 = all killed)
- condition.details: 10 µM unless noted
This is part of a sample that, as a whole, favours compounds with a hit. Of some 83,000 tested, about 20% had one in any assay.
Reported values of growth for individual entries
recorded.metric: growth (%)

> print(dat)
                                    compound  quantitative.readout
 1  CCN(CC)c1cc(C)c2cc(NC(=O)c3cccc(OC)c3)ccc2n1                  84.7
 2     OCC1C2C=CC(C2)C1CO (stereo not drawn)                  87.5
 3  N#Cc1c(-c2ccccc2)cc(-c2ccccc2)n(CCCCCC(=O)Nc2ccccc2N)c1=O                  2.68
 4  O=[N+]([O-])c1cccc(N=C(Nc2cccc([N+](=O)[O-])c2)c2ccccc2)c1                   102
 5         CCOC(=O)C(=Cc1ccc(Br)cc1)C(=O)OCC                 -41.8
 6  Cc1c(Cl)cccc1NC(=O)c1sc2nc3c(cc2c1N)CCCCC3                 -24.9
 7        Fc1cccc(CNc2c3ccccc3nc3ccccc23)c1F                    76
 8  Cc1c(C(=O)N[C@@H](Cc2ccccc2)C(=O)C(=O)NCCc2ccccc2)[nH]c2ccccc2c1=O                    98
 9  COc1ccc(-c2[nH]nc(N)c2-c2cc(OC)c(OC)c(OC)c2)cc1                 -34.9
10  COc1cc(C(=O)N2CCN(c3ccccc3)CC2)c2ccccc2n1                 -1.74
11  CCOC(=O)/C=C1/SC(=Nc2ccc(C#N)cc2)N(Cc2ccco2)C1=O                 -26.6
12          COc1ccc(S(=O)(=O)c2ccc(F)cc2)cc1                   105
13         COc1ccc2nc3ccc(OC)cc3c(SCCCN)c2c1                  50.2
14  O=C(Nc1ccc2cc3ccc(NC(=O)NC4CCCCC4)cc3nc2c1)NC1CCCCC1                  99.3
15  Cc1ccc(Nc2nnc(-c3cc(-c4ccncc4)n(-c4ccccc4)n3)s2)cc1                  66.3
16        CC(=O)N(N=Nc1ccccc1)c1cccc2ccccc12                   116
17  CC(C)c1[nH]ncc1-c1nc2ccc3[nH]ncc3c2c2c1CCCC2                  13.4
18                     CCC(=O)OCc1ccc(OC)cc1                    97
19  c1ccc(C(Nc2ccccn2)(c2ccccc2)c2ccccc2)cc1                  90.4
20  COc1cc(Nc2c(C#N)cnc3cc(OCCCN4CCN(C)CC4)c(OC)cc23)c(Cl)cc1Cl                  6.54
21      O=C1C(=O)N(CCCCn2cc(CO)nn2)c2ccccc21                  91.9
22  O=C(CC(O)c1ccccc1)Nc1ccccn1 (stereo not drawn)                  97.3
23  Cc1ccc(Sc2oc(-c3ccc(C)cc3)nc2[P+](c2ccccc2)(c2ccccc2)c2ccccc2)cc1                   -45

###

- System: HL-60(TB) leukemia
- procedure.details: NCI-60 one-dose screen, 48 h
- condition.details: 10 µM unless noted
About 83,000 compounds went through this panel and 20% of them were active in at least one assay; those are over-represented in the sample as a whole. The source made the active and inactive calls. The calls were made as follows: active = growth percent below 10; inactive = the rest.
Outcomes: active, inactive

> print(dat)
                                    compound     class
 1  CCN(CC)CC(C)(C)C(=O)/C=C/c1ccc(Cl)c(Cl)c1    active
 2  COCCc1ccc(OCC(O)CNC(C)C)cc1 (stereo not given)  inactive
 3  Fc1ccc(-c2nnc(-c3c(-c4ccc(F)cc4)nc4ncccn34)o2)cc1  inactive
 4  CC(=O)O[C@@H]1CCN2C(=O)N(C)c3ccccc3[C@@H]2C1  inactive
 5        NC(=Nc1ccc(N)cc1)C(N)=Nc1ccc(N)cc1  inactive
 6  Nc1cc(N)c(S(=O)(=O)O)cc1N=Nc1cc([N+](=O)[O-])ccc1O  inactive
 7  Nc1nccc2c1ccn2-c1ccc(NC(=O)Nc2cccc(C(F)(F)F)c2)cc1  inactive
 8  CCN1C(=S)N(c2ccccc2)C2NC(=S)N(/N=C/C=C/c3ccccc3OC)C21 (stereo not given)    active
 9    O=C1Nc2c(ccc(Cl)c2Cl)/C1=C/c1ccc(F)cc1  inactive
10  CN1CCN(CC(=O)N(C)c2ccc(N=C(c3ccccc3)c3c(O)[nH]c4ccc(C#N)cc34)cc2)CC1  inactive
11  Nc1ncnc2c1c(-c1cccc(Cl)c1)nn2CC(=O)N1CCOCC1  inactive
12  O=S(=O)(Nc1nccs1)c1ccc(Nc2nc(-c3ccncc3)cs2)cc1  inactive
13  CCc1cccc(CC)c1NC(=O)c1sc2nc3c(cc2c1N)CCCC3  inactive
14  Cc1cc2c(C(C)C)c(O)c(O)c(C=NCCCCCCC(=O)O)c2c(O)c1-c1c(C)cc2c(C(C)C)c(O)c(O)c(C=NCCCCCCC(=O)O)c2c1O  inactive
15  C[C@]12C=CC(=O)C=C1CCC1C2[C@@H](O)C[C@@]2(C)C1CC[C@]2(O)C(=O)COC(=O)CCC(=O)O (stereo not given in full)  inactive
16  CC(C)(C#N)c1cc(F)cc(C(=O)Nc2cc(Nc3ncccc3-c3ncnc4nc[nH]c34)ccc2F)c1  inactive
17  O=C(/C=C/c1ccc(F)cc1)c1ccc(Nc2nc(NCCO)nc(Nc3ccc(Cl)cc3)n2)cc1  inactive
18    COc1cc(Cn2c(-c3nonc3N)nc3ccccc32)ccc1C    active
19           O=C1N=NC2=C1c1c3ccccc3c(O)n1CC2  inactive
20  C=C1C(=O)O[C@H]2[C@H]1CC/C(COC(=O)CCC(=O)OC/C1=C/CC[C@@]3(C)O[C@H]3[C@H]3OC(=O)C(=C)[C@@H]3CC1)=C\CC[C@@]1(C)O[C@@H]21    active
